Assay: CREB reporter modulators without forskolin, primary screen, cell-based, PC12, CRE-LacZ reporter, unstimulated (AID 1145)
Settings: no forskolin, luminescence, 4.5 h, higher = more signal, called active from +8 up or from −8 down
measured_quantity: z-score
In your answer, state the number alone without any accompanying words.

Ask: Recall and state the measured z-score for COCCCNC(=O)[C@@]1(Cc2ccccc2N=[N+]=[N-])N=C(c2ccc(OCCCO)cc2)O[C@H]1c1ccccc1 .
Result: 0.558

Ask: For the compound CC=CC(O)C1C=CC2C(=O)N(c3ccccc3)C(=O)C2N1Nc1ccccc1F (configuration not stated) , give its measured z-score value.
Result: 0.481

Ask: Give the measured z-score for O=C(NCC(F)(F)F)[C@@H]1c2ccccc2C(=O)N(Cc2ccccc2C(F)(F)F)[C@H]1c1ccc(CO)cc1
Result: -0.295

Ask: Assign z-score to the following record: CC(C)C(=C=CC[C@H](O)c1cccc(OCCO)c1)C[C@H](O)c1cc(Cl)cc(Cl)c1O
Result: 5.53

Ask: Answer with the recorded z-score for the compound listed here: C[N+](C)(C)CCCCCCNC(=O)[C@H]1C[C@H]2C(=O)N[C@@H](Cc3ccccc3)C(=O)N2[C@H]1c1ccc(O)cc1
Result: -1.08

Ask: Look up z-score of C=CCC(OC(C)=O)[C@@H]1[C@@H](N(Cc2cccc3ccccc23)C(=O)Cc2ccc(F)cc2)c2cc(OCCCO)ccc2N1C(=O)c1ccc2ccccc2n1 (some centres not stated) and report it.
Result: 0.367

Ask: Provide only the value of recorded z-score for COCCCNC(=O)[C@]1(CCS(=O)(=O)c2ccccc2)N=C(c2ccc(OCCCO)cc2)O[C@@H]1c1ccccc1N=[N+]=[N-]
Result: 0.297

----------
Experiment: COS7 lysate on small-molecule microarray, probe aHis, 635 nm (AID 1123);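 also: z-score combines 667nm fluorescence intensity with signal-to-noise per printed compound spot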
Settings: COS7 cell lysate, fluorescence, higher = more signal
measured_quantity: composite z-score

Ask: Provide measured composite z-score value, entry: C[C@H]1NC(=O)[C@@]23C(=O)N[C@@H](Cc4ccccc4)C2[C@H](C)[C@@]2(C)O[C@H]2C3/C=C/C/C=C\CNC(=O)[C@H](Cc2ccccc2)NC1=O (stereo partly drawn)
Result: 0.205

Ask: For NC(=O)N1C(=O)C2C(C1=O)C1C=C(CCCO)C2C(c2cccs2)N1Cc1cccc(OC(F)(F)F)c1 (stereo not drawn) , write its composite z-score.
Result: 0.789

Ask: Using known records, supply composite z-score for COCCCNC(=O)[C@]1(CCS(=O)(=O)c2ccccc2)N=C(c2ccc(OCCCO)cc2)O[C@@H]1c1ccccc1N=[N+]=[N-]
Result: 2.39

Ask: Name the recorded composite z-score of the item O=C1O[C@H](c2ccccc2)[C@H](c2ccccc2)N2[C@H]1[C@@H](C(=O)NC[C@H](O)c1ccccc1)[C@]1(C(=O)Nc3ccc(C#CCCO)cc31)[C@H]2c1ccc(OCCO)cc1 in your answer.
Result: 1.7

Ask: Look up and report measured composite z-score for this entry: C[C@]1(C(=O)NC2CC2)c2ccccc2C(=O)N(Cc2ccccc2)[C@H]1c1ccc(CO)cc1
Result: -0.163

Ask: Tell me measured composite z-score for Cc1ccc(S[C@]2(C(=O)O)CC(=O)N(Cc3cc(C(F)(F)F)cc(C(F)(F)F)c3)[C@@H]2c2ccc(CO)cc2)cc1 please.
Result: 1.23

Ask: Return value of composite z-score for input O=C1O[C@@H](c2ccccc2)[C@@H](c2ccccc2)N2[C@@H](c3ccccc3OCCO)[C@]3(C(=O)Nc4ccc(C#CCCO)cc43)[C@@H](C(=O)N3CCCCCCC3)[C@H]12 , no commentary.
Result: 5.27

Ask: Dear colleague, please send me the reported composite z-score for COC(=O)c1nc2oc1CC[C@@H](CO)NC(=O)N(C)Cc1cnnn1C[C@H](Cc1ccccc1)NC2=O when you can.
Result: 0.205

Ask: Recall and state the measured composite z-score for CCOC(=O)C[C@H]1[C@H](OC(=O)c2ccc(C(=O)c3ccccc3)cc2)[C@@H](NC(=O)Cc2ccc(OC)cc2)c2cc(OCCCO)ccc2N1C(=O)c1ccccc1 .
Result: 0.409

Ask: Complete the entry with composite z-score for CCCNC(=O)[C@@H]1c2ccccc2C(=O)N(C(C)C)[C@H]1c1ccc(CO)cc1
Result: 0.113

Ask: Specify composite z-score for O=C(NCc1ccccc1)[C@@H]1c2ccccc2C(=O)N(Cc2ccccc2C(F)(F)F)[C@H]1c1ccc(CO)cc1 and stop.
Result: 0.829

Ask: Tell me measured composite z-score for COc1ccc(CCNC(=O)[C@@H]2c3ccccc3C(=O)N(Cc3cc(C(F)(F)F)cc(C(F)(F)F)c3)[C@H]2c2ccc(CO)cc2)cc1 please.
Result: 0.84

Ask: Respond only with composite z-score recorded for COCCOC(=O)N1C(=O)[C@@]2(c3cc(C#CC4(O)CCCCCC4)ccc31)[C@H](c1ccc(O)cc1)N1[C@H](c3ccccc3)[C@H](c3ccccc3)OC(=O)[C@H]1[C@@H]2C(=O)NC[C@H](O)c1ccccc1
Result: 2.46

src = PubChem BioAssay
